# targetEntity: Tyrosine-protein kinase FRK (Homo sapiens, UniProt P42685)
# Sequence (P42685 whole entry): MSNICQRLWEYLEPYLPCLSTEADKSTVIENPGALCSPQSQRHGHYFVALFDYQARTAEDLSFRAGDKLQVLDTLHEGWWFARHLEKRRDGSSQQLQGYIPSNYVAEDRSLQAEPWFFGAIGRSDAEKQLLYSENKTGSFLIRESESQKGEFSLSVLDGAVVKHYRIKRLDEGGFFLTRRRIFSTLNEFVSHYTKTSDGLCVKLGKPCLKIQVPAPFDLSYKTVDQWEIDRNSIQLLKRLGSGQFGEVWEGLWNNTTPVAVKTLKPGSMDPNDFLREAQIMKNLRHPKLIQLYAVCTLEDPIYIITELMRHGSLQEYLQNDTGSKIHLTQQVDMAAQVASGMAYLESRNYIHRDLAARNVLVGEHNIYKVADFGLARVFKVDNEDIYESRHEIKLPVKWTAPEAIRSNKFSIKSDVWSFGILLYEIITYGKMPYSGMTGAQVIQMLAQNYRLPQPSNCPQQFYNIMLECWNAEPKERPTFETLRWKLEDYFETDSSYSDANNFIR
assayReadout: pIC50
API: returns pIC50 as number; meaning -log10 of concentration in mol/L.

Request: Consider the molecule CC(C)C(=O)N1CCC[C@@H](c2nc(-c3ccc(C(=O)Nc4cc(C(F)(F)F)ccn4)cc3F)c3c(N)nccn23)C1 and give its measured pIC50.
Result: 6.33

====

# experimentDescription: Total clearance in dog plasma at 2 mg/kg administered as cassette dose
# Format: ADME, organism-based, Canis lupus familiaris
assayReadout: clearance

> print(dat)
                                   molecule          result
1  COCC(=O)N1CCO[C@@H](c2nc(-c3ccc(C(=O)Nc4cc(C(F)(F)F)ccn4)cc3F)c3c(N)nccn23)C1  13.8 mL/min/kg

From here, focus on the item given below.
Request: Consider the compound Nc1nccn2c([C@H]3CN(C4CCOCC4)CCO3)nc(-c3ccc(C(=O)Nc4cc(C(F)(F)F)ccn4)cc3F)c12 and give its measured clearance.
Result: 5.9 mL/min/kg

The values you see were collected from ChEMBL document CHEMBL4052776.
